Test system: MM cells
Assay text: IC50 concentrations of HDAC inhibitors in MM cells
Type: cell-based
Test parameters: Homo sapiens
Entries and their measured IC50 follow.
Response body: numeric value in µM, unit text excluded.

Molecule	Study target	Quantitative result
CC(C)[C@H](C(=O)Nc1ccc(C(=O)NO)cc1)c1ccccc1	MM cells	0.2

Query (molecule): Cc1[nH]c2ccccc2c1CCNCc1ccc(/C=C/C(=O)NO)cc1 [LBH, reference compound] ; field requested: IC50 0.01

This collection of values is drawn from patent US10022342B2.
